# TARGET OR SYSTEM: T1, PUF4 RNA-binding domain (Saccharomyces cerevisiae, UniProt P25339 537-888)
# T1 sequence: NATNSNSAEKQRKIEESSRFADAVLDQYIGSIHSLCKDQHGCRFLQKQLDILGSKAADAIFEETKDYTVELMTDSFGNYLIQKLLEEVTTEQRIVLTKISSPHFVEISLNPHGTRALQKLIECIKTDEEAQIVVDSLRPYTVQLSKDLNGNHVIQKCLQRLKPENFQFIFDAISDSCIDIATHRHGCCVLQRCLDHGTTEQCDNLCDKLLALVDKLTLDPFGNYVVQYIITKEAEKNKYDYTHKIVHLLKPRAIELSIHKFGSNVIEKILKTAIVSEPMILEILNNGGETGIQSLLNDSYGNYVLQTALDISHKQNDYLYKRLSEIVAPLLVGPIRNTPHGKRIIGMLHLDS
# PROTOCOL SUMMARY: Mg; RNA-MaP; 20 mM Na-HEPES pH 7.4, 30 mM KOAc, 0.75 mM MgCl2, 0.1% Tween-20, 5% glycerol, 0.1 mg/mL BSA, 2 mM DTT; 25 C; 0.0125-409.6 nM protein
# SETTINGS: tags: N-His6-TEV cleaved; C-SNAP kept, Cy3B-labelled; label: tethered on chip by stalled RNA polymerase
Lab note: anything with Kd below 10 nM is marked rule met; values at 10 nM or higher are marked rule not met.

Request: # TODO verify Kd < 10 nM strictly for this binder: UCUCUUAGUAUUCUUAUCUCUU (ssRNA) [Ib_S1_P5E.1_K5.1_C5.1_H5.1_[T1A]_A5.1_[A7C]_F5.1_T5.1]
Result: rule not met

Request: # TODO verify Kd < 10 nM strictly for this binder: Ic_S4_P3E.1_K3.1_C3.1_H3.1_A3.1_[T5C]_F3.1_[T7A]_T3.1 (ssRNA) RNA: UUUGACAACUGAUCGUUCUUUCUUGUACAAAUUCUUUCUCGAUCAGUUGUCUUU
Result: rule not met

Request: # TODO verify Kd < 10 nM strictly for this binder: UCUCUUUGUAUACUAUCUCUU (ssRNA) [Ic_S1_P4E.1_K4.1_C4.1_H4.1_A4.1_[T7C]_F4.1_T4.1]
Result: rule met

Request: # TODO verify Kd < 10 nM strictly for this binder: UCUCUUUGUAUAAACUCUCUU (ssRNA) [Ic_S1_P4E.1_K4.1_C4.1_H4.1_A4.1_[T7A]_F4.1_[T8A]_[A9C]_T4.1]
Result: rule not met

Request: # TODO verify Kd < 10 nM strictly for this binder: UCUCUUAACACACUAUAUAUCUCUU (ssRNA) [Id_i_S1_P3E.7_K3.3_C3.3_[T-3A]_[C-2A]_[T-1C]_H3.3_A3.1_F3.1_T3.2]
Result: rule not met

Request: # TODO verify Kd < 10 nM strictly for this binder: Ie_S2_P5E.1_K5.1_C5.1_H5.1_[+4T]_A5.1_F5.1_T5.1 (ssRNA) RNA: UUUGAUUAAUAUGAUAUCGUUCUUUCUUGUAUUUAUUAUUCUUUCUCGAUAUCAUAUUAAUCUUU
Result: rule not met

Request: # TODO verify Kd < 10 nM strictly for this binder: UCUCUUGUACACUAUUAAAUCUCUU (ssRNA) [Id_ii_S1_P4E.4_K4.3_C4.2_[C-2G]_H4.3_A4.1_F4.1_T4.2_[G10A]_[T11A]]
Result: rule met

Request: # TODO verify Kd < 10 nM strictly for this binder: UCUCUUAGUGUAUAUAUAUCUCUU (ssRNA) [Id_i_S1_P3E.2_K3.1_C3.2_[C-2A]_[T-1G]_H3.1_A3.1_F3.1_T3.2]
Result: rule not met

Request: # TODO verify Kd < 10 nM strictly for this binder: Ib_S2_P4E.1_K4.1_C4.1_H4.1_A4.1_[T5A]_F4.1_[A9C]_T4.1 (ssRNA) RNA: UUUGAUUAAUAUGAUAUCGUUCUUUCUUGUAAAUUCUUCUUUCUCGAUAUCAUAUUAAUCUUU
Result: rule not met

Request: # TODO verify Kd < 10 nM strictly for this binder: Ic_S2_P4E.1_K4.1_C4.1_H4.1_A4.1_F4.1_[T8C]_[A9C]_T4.1 (ssRNA) RNA: UUUGAUUAAUAUGAUAUCGUUCUUUCUUGUAUAUCCUUCUUUCUCGAUAUCAUAUUAAUCUUU
Result: rule met

Request: # TODO verify Kd < 10 nM strictly for this binder: UCUCUUUGUACGCCUUCUCUU (ssRNA) [Ic_S1_P4E.1_K4.1_C4.1_H4.1_A4.1_[T5C]_[A6G]_[T7C]_F4.1_[T8C]_[A9T]_T4.1]
Result: rule not met

Request: # TODO verify Kd < 10 nM strictly for this binder: UCUCUUUGUAUCCUAUUCUCUU (ssRNA) [Ic_S1_P5E.1_K5.1_C5.1_H5.1_A5.1_[T6C]_[A7C]_F5.1_[T9A]_[A10T]_T5.1]
Result: rule met

Request: # TODO verify Kd < 10 nM strictly for this binder: UCUCUUUGUAUUAUUUCUCUAUCUCUU (ssRNA) [Ie_S1_P5E.1_K5.1_C5.1_H5.1_A5.1_F5.1_[+9TCTCT]_T5.1]
Result: rule not met
